system: Mitogen-activated protein kinase kinase kinase kinase 2 (Homo sapiens, UniProt Q12851)
Sequence (Q12851 whole entry): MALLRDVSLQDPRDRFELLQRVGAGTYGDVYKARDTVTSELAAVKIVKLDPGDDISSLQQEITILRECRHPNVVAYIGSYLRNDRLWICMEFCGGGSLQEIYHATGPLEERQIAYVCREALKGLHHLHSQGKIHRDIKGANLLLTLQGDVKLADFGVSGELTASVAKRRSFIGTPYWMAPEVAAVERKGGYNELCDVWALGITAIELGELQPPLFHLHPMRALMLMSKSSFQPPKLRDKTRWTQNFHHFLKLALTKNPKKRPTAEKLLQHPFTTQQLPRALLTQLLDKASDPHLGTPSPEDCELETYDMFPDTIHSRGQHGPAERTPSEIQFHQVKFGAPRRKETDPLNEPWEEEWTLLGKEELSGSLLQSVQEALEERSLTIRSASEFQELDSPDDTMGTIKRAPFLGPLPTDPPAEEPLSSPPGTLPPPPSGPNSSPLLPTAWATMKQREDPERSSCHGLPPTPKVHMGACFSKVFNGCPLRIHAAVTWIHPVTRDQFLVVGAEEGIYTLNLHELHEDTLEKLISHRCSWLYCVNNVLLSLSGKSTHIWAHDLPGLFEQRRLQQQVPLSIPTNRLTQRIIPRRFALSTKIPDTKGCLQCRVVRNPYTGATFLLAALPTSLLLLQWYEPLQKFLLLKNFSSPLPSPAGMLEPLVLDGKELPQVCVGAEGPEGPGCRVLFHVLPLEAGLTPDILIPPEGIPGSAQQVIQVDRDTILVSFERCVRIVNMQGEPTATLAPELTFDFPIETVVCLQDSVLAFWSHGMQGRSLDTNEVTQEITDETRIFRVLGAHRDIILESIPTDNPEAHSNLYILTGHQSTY
assay: Inhibition of human GCK
pIC50: −log10 of the molar value.
measured-attribute: pIC50

- COc1c(Nc2ncc(Cl)c(N[C@H]3[C@@H](C(N)=O)[C@@H]4C=C[C@H]3C4)n2)ccc2c1CC[C@@H](N1CCOCC1)CC2: 7.22

---

Entries and their measured Cmax follow.
assay: Cmax in rat at 100 mg/kg, po
Type: ADME, organism-based
Design: dose 100 mg/kg, route oral
condition-parameters: in vivo
measured-attribute: Cmax

* CCN1C(=O)CCCc2c1ccc(Nc1ncc(Cl)c(N[C@H]3[C@@H](C(N)=O)[C@@H]4C=C[C@H]3C4)n1)c2OC | 1550 ng/mL
* COc1c(Nc2ncc(Cl)c(N[C@H]3[C@@H](C(N)=O)[C@@H]4C=C[C@H]3C4)n2)ccc2c1CC[C@@H](N1CCOCC1)CC2 | 3050 ng/mL

---

assay: AUC in cynomolgus monkey at 1 mg/kg, iv
Assay type: ADME, organism-based, Macaca fascicularis
Parameters: dose 1 mg/kg, route intravenous
condition-parameters: plasma
measured-attribute: AUC (ng·h/mL)

* COc1c(Nc2ncc(Cl)c(N[C@H]3[C@@H](C(N)=O)[C@@H]4C=C[C@H]3C4)n2)ccc2c1CC[C@@H](N1CCOCC1)CC2 | 615

---

Entries and their measured Cmax follow.
assay: Cmax in rat at 30 mg/kg, po
Assay type: ADME, organism-based
Parameters: dose 30 mg/kg, route oral
condition-parameters: in vivo
measured-attribute: Cmax (ng/mL)

- CCN1C(=O)CCCc2c1ccc(Nc1ncc(Cl)c(N[C@H]3[C@@H](C(N)=O)[C@@H]4C=C[C@H]3C4)n1)c2OC: 1360
- COc1c(Nc2ncc(Cl)c(N[C@H]3[C@@H](C(N)=O)[C@@H]4C=C[C@H]3C4)n2)ccc2c1CC[C@@H](N1CCOCC1)CC2: 1010

---

system: Ribosomal protein S6 kinase alpha-1 (Homo sapiens, UniProt Q15418)
Sequence (Q15418 whole entry): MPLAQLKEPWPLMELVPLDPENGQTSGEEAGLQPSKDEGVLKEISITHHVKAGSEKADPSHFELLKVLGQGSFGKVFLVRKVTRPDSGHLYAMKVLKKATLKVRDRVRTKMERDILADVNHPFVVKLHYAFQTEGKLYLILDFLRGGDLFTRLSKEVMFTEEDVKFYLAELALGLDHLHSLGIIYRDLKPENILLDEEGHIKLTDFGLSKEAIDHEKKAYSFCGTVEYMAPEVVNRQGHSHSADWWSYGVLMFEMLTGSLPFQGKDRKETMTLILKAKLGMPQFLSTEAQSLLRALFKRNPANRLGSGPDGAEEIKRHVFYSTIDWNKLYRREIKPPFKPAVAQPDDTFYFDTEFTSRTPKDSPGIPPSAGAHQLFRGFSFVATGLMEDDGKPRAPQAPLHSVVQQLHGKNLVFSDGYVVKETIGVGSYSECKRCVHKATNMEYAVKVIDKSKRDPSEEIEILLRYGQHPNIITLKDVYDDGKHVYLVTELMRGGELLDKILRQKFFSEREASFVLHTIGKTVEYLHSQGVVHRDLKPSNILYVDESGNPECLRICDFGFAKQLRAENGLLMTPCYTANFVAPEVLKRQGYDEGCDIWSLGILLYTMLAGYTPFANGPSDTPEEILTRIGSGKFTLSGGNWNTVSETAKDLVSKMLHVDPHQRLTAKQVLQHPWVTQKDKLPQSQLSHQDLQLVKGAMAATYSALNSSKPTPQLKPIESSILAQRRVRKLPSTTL
pIC50: −log10 of the molar value.
measured-attribute: pIC50

- COc1c(Nc2ncc(Cl)c(N[C@H]3[C@@H](C(N)=O)[C@@H]4C=C[C@H]3C4)n2)ccc2c1CC[C@@H](N1CCOCC1)CC2: 7.21

---

assay: AUC in Sprague-Dawley rat at 1 mg/kg, iv
Format: ADME, organism-based
Set-up: dose 1 mg/kg, route intravenous
condition-parameters: plasma
measured-attribute: AUC (ng·h/mL)

* COc1c(Nc2ncc(Cl)c(N[C@H]3[C@@H](C(N)=O)[C@@H]4C=C[C@H]3C4)n2)ccc2c1CC[C@@H](N1CCOCC1)CC2 | 989

---

assay: Half life in SCID mouse at 1 mg/kg, iv
Type: ADME, organism-based
Parameters: dose 1 mg/kg, route intravenous
condition-parameters: in vivo
measured-attribute: half-life

• COc1c(Nc2ncc(Cl)c(N[C@H]3[C@@H](C(N)=O)[C@@H]4C=C[C@H]3C4)n2)ccc2c1CC[C@@H](N1CCOCC1)CC2 = 1.8 h

---

assay: Plasma concentration in SCID mouse xenografted with human KARPAS299 cells expressing NPM-ALK at 30 mg/kg, po after 6 hrs by LC-MS/MS analysis
Assay type: ADME, organism-based, KARPAS-299
Set-up: dose 30 mg/kg, route oral
measured-attribute: concentration at 6 h (ng/mL)

• COc1c(Nc2ncc(Cl)c(N[C@H]3[C@@H](C(N)=O)[C@@H]4C=C[C@H]3C4)n2)ccc2c1CC[C@@H](N1CCOCC1)CC2 = 3840
